Reported 3D SBR values are given for each entry in this list.
- TARGET_OF_ASSAY: GLUT1 (Homo sapiens)
- Construct: The full-length human SLC2A1, SLC2A3, and SLC2A4 genes were PCR amplified and inserted into pLenti6M vector 2; expressed in transfected cells
- Sequence (P11166 whole entry): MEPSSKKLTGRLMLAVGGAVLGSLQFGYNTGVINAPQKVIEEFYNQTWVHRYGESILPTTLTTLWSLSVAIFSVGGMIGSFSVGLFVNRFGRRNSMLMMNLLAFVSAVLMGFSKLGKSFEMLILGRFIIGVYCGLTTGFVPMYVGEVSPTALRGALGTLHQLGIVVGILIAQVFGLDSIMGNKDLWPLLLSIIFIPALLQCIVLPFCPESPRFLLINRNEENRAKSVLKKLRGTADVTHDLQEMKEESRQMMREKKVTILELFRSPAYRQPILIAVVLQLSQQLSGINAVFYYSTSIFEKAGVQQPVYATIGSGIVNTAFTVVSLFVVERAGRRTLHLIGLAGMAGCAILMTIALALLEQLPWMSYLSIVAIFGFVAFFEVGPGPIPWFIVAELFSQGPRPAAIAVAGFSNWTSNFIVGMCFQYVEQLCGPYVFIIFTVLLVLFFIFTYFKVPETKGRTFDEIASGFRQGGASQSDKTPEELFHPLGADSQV
- METHOD_SUMMARY: rapafucin 3D microarray screen with GLUT1-containing cell lysate
- Assay type: binding
- EXPERIMENTAL_CONDITIONS: signal-to-background ratio, 3D surface, lysate of GLUT1-overexpressing HEK293T; hit if SBR > 3
// return just the number, without any unit appended

Some compounds with known 3D SBR results, for comparison:
{"COMPOUND": "CCCC[C@H]1C(=O)N2CCC[C@@H]2C(=O)N(C)CCC=CC(=O)OCC(C)(C)C(=O)C(=O)N2CCCC[C@H]2C(=O)O[C@H](CCc2ccc(OC)c(OC)c2)c2cncc(c2)OCC(=O)N(C)CC(=O)N[C@@H](Cc2ccccc2)C(=O)N1C [WL11-G9]", "3D SBR": 3.9}
{"COMPOUND": "CCC(C)C1C(=O)NC(Cc2ccccc2)C(=O)N(C)CCC=CC(=O)OCC(C)(C)C(=O)C(=O)N2CCCCC2C(=O)OC(CCc2ccc(OC)c(OC)c2)c2cccc(c2)OCC(=O)N(C)CC(=O)NC(Cc2ccc(F)cc2)C(=O)N1C (stereo not drawn) [HP05-F5]", "3D SBR": 7.9}
{"COMPOUND": "CCCC[C@H]1C(=O)N2CCC[C@@H]2C(=O)N(C)CCC=CC(=O)OCC(C)(C)C(=O)C(=O)N2CCCC[C@H]2C(=O)O[C@H](CCc2ccc(OC)c(OC)c2)c2cccc(c2)OCC(=O)N(C)CC(=O)N[C@H](Cc2ccc(NC(=O)OC(C)(C)C)cc2)C(=O)N1C [WL11-E7]", "3D SBR": 4.8}
{"COMPOUND": "COc1ccc(CC[C@H]2OC(=O)[C@@H]3CCCCN3C(=O)C(=O)C(C)(C)COC(=O)C=CCCN(C)C(=O)CNC(=O)CN(C)C(=O)[C@H](Cc3ccc(O)cc3)NC(=O)[C@@H](Cc3ccccc3)N(C)C(=O)COc3cccc2c3)cc1OC [WL03-G11]", "3D SBR": 5.1}
{"COMPOUND": "COc1ccc(CC[C@H]2OC(=O)[C@@H]3CCCCN3C(=O)C(=O)C(C)(C)COC(=O)C=CCCN(C)C(=O)[C@H](Cc3ccccc3)N(C)C(=O)CCNC(=O)CN(C)C(=O)[C@H](Cc3ccc(O)cc3)NC(=O)COc3cccc2c3)cc1OC [WL05-D8]", "3D SBR": 6.4}
{"COMPOUND": "COc1ccc(CC[C@H]2OC(=O)[C@@H]3CCCCN3C(=O)C(=O)C(C)(C)COC(=O)C=CCCN(C)C(=O)[C@H]3CCCN3C(=O)[C@H](C(C)C)N(C)C(=O)[C@H](Cc3ccc([N+](=O)[O-])cc3)NC(=O)CN(C)C(=O)COc3cccc2c3)cc1OC [WL12-G5]", "3D SBR": 8.8}
{"COMPOUND": "CCCC[C@H]1C(=O)N[C@@H](Cc2ccccc2)C(=O)N(C)CCC=CC(=O)OCC(C)(C)C(=O)C(=O)N2CCCC[C@H]2C(=O)O[C@H](CCc2ccc(OC)c(OC)c2)c2cccc(c2)NC(=O)CCC(=O)N(C)[C@H](Cc2ccccc2)C(=O)N[C@@H](Cc2ccc(F)cc2)C(=O)N1C [HP05-A9]", "3D SBR": 3.4}
{"COMPOUND": "CCC(C)C1C(=O)NCC(=O)N(C)CCC=CC(=O)OCC(C)(C)C(=O)C(=O)N2CCCCC2C(=O)OC(CCc2ccc(OC)c(OC)c2)c2cccc(c2)NC(=O)CCC(=O)N(C)C(CC(C)C)C(=O)NC(Cc2ccccc2)C(=O)N1C (stereo not drawn) [JW11-D2, Rapaglutin A]", "3D SBR": 6.5}

Next compound, please.
Query :: # value lookup — system GLUT1 (Homo sapiens), readout 3D SBR, item Cc1c(NC(=O)c2cc(C(N)=O)nc3cc(F)ccc23)c(C(F)(F)F)nn1Cc1ccc(C#N)cc1 [BAY-876]
Result :: 3.2
